pIC50 overview
targetEntity: UniProt:P35270
runDescription: Evaluation Example 2: Measurement of human SPR inhibitory activity (seven concentrations, sepiapterin absorbance at 420 nm)
Format: biochemical
runParameters: Evaluation Example 2, seven concentrations 0.14 nM to 100 nM, 240 minutes at room temperature, read-out: IC50
pIC50: −log10 of the molar value.
measuredMetric: pIC50

> print(dat)
                                   compound  measuredmetric  obsvalue
1  Cc1cn[nH]c1-c1cc2n(CC(C)(C)C)c(=O)c(C(=O)NC3CC3)c(O)n2n1 [Synthesis Example 287]           pIC50      8.60
2  CC(C)Cn1c(=O)c(C(=O)NC2CC2)c(O)n2ncc(/C=C/C(=O)N3CCC(C(F)F)CC3)c12 [compound 466]           pIC50      8.90
3  CC(C)Cn1c(=O)c(C(=O)NC2CC2)c(O)n2ncc(/C=C/C(=O)N3C[C@H]4C[C@@H]3CO4)c12 [compound 538]           pIC50      9.16
4  Cc1nn2c(O)c(C(=O)NC3CC3)c(=O)n(CC(C)C)c2c1/C=C/C(=O)N1[C@@H](C)COC[C@@H]1C [compound 567]           pIC50      9.16
5  Cc1nn2c(O)c(C(=O)NC3CC3)c(=O)n(CC(C)C)c2c1/C=C/C(=O)N1CCC[C@@H]1C [compound 580]           pIC50      9.02
6  Cc1nn2c(O)c(C(=O)NC3CC3)c(=O)n(CC(C)C)c2c1/C=C/C(=O)N1CCC[C@H]1C(F)F [Synthesis Example 634]           pIC50      8.92
7  O=C(NC1CC1)c1c(O)n2ncc(/C=C/C(=O)N3CCOCC3)c2n(CC2(F)CC2)c1=O [Synthesis Example 364]           pIC50      9.20
8  Cc1nn2c(O)c(C(=O)NC3CC3)c(=O)n(CC(C)C)c2c1/C=C/C(=O)N1C[C@H](C)OC[C@@H]1C [Synthesis Example 645]           pIC50      9.10
9  CNc1nn2c(O)c(C(=O)NC3CC3)c(=O)n(CC(C)C)c2c1/C=C/C(=O)N1CCC(F)(F)C1 [Synthesis Example 428]           pIC50      9.08

###

The compounds listed here are annotated with their pIC50.
targetEntity: human SPR (Homo sapiens (Human))
runDescription: Evaluation Example 2: Measurement of human SPR inhibitory activity (seven concentrations, sepiapterin absorbance at 420 nm)
Type: biochemical
runParameters: Evaluation Example 2, seven concentrations 0.14 nM to 100 nM, 240 minutes at room temperature, read-out: IC50
pIC50: −log10 of the molar value. Structures can show the parent of a compound that is named as a salt.
measuredMetric: pIC50

> print(dat)
                                   compound                      targetentity  obsvalue
1  Cc1nn2c(O)c(C(=O)NC3CC3)c(=O)n(CC(C)C)c2c1/C=C/C(=O)N1CCC(C(F)F)C1 (stereo not shown) [Synthesis Example 622]  human SPR (Homo sapiens (Human))      8.99
2  CC(C)Cn1c(=O)c(C(=O)NC2CC2)c(O)n2nc(N)c(/C=C/C(=O)N3C4CCCC3COC4)c12 [Synthesis Example 423, hydrochloride]  human SPR (Homo sapiens (Human))      9.15
3  Cc1nn2c(O)c(C(=O)NC3CC3)c(=O)n(CC(C)C)c2c1/C=C/C(=O)N1C[C@@H](C)OC[C@H]1C [Synthesis Example 644]  human SPR (Homo sapiens (Human))      9.04
4  CC(C)(C)Cn1c(=O)c(C(=O)NC2CC2)c(O)n2nc3c(c12)CCOC(=O)N3 [Synthesis Example 401]  human SPR (Homo sapiens (Human))      9.25
5  Cc1nn2c(O)c(C(=O)NC3CC3)c(=O)n(CC(C)C)c2c1/C=C/C(=O)N1CCC[C@H]1c1cccnc1 [Synthesis Example 633]  human SPR (Homo sapiens (Human))      9.04
6  COCCNC(=O)/C=C/c1cnn2c(O)c(C(=O)NC3CC3)c(=O)n(CC(C)C)c12 [compound 517]  human SPR (Homo sapiens (Human))      9.24
7  COc1nccc(Nc2cc3n(CC(C)(C)C)c(=O)c(C(=O)NC4CC4)c(O)n3n2)n1 [Synthesis Example 332]  human SPR (Homo sapiens (Human))      8.69

###

Item-by-item account of IC50
targetEntity: human SPR (Homo sapiens (Human))
runDescription: Evaluation Example 2: Measurement of human SPR inhibitory activity (seven concentrations, sepiapterin absorbance at 420 nm)
Type: biochemical
runParameters: Evaluation Example 2, seven concentrations 0.14 nM to 100 nM, 240 minutes at room temperature, read-out: IC50
measuredMetric: IC50 (pM)

> print(dat)
                                    molecule  measuredmetric  obsvalue
 1  COC[C@H]1CCCN1C(=O)/C=C/c1c(C)nn2c(O)c(C(=O)NC3CC3)c(=O)n(CC(C)C)c12 [Synthesis Example 612]            IC50      1230
 2  CC(C)Cn1c(=O)c(C(=O)NC2CC2)c(O)n2ncc(/C=C/C(=O)N3CC[C@H](C#N)C3)c12            IC50       710
 3  CC(C)Cn1c(=O)c(C(=O)NC2CC2)c(O)n2ncc(/C=C/C(=O)N3CCOCC3)c12 [Synthesis Example 10]            IC50       680
 4  CC(C)Cn1c(=O)c(C(=O)NC2CC2)c(O)n2ncc(/C=C/C(=O)N3CCC4CC43)c12 (racemic)            IC50      1590
 5  Cc1nnc(/C=C/c2cnn3c(O)c(C(=O)NC4CC4)c(=O)n(CC(C)C)c23)o1 [Synthesis Example 269]            IC50      1170
 6  CC(C)Cn1c(=O)c(C(=O)NC2CC2)c(O)n2nc(N)c(/C=C/C(=O)N3CCOCC3)c12 [Synthesis Example 416]            IC50       590
 7  CN(CC#N)C(=O)c1cnc(Nc2cc3n(CC(C)(C)C)c(=O)c(C(=O)NC4CC4)c(O)n3n2)cn1 [Synthesis Example 358]            IC50       870
 8  CC(C)(C)Cn1c(=O)c(C(=O)NC2CC2)c(O)n2nc(-c3cccnc3N)cc12 [Synthesis Example 14]            IC50      1190
 9  Cc1nn2c(O)c(C(=O)NC3CC3)c(=O)n(CC(C)C)c2c1/C=C/C(=O)N1CCN(C2CC(F)(F)C2)C[C@@H]1C [Synthesis Example 671]            IC50      1490
10  CC(C)Cn1c(=O)c(C(=O)NC2CC2)c(O)n2ncc(/C=C/c3cscn3)c12 [Synthesis Example 240]            IC50      1840
11  CC(C)Cn1c(=O)c(C(=O)NC2CC2)c(O)n2ncc(/C=C/C(=O)N3CCC[C@H]3CO)c12            IC50       850
12  Nc1ncccc1-c1cc2n(CC3CCOCC3)c(=O)c(C(=O)NC3CC3)c(O)n2n1 [Synthesis Example 290]            IC50       930
13  CC(C)Cn1c(=O)c(C(=O)NC2CC2)c(O)n2ncc(/C=C/C(=O)N3CCC[C@@H](CO)C3)c12            IC50       770
14  CC(C)Cn1c(=O)c(C(=O)NC2CC2)c(O)n2ncc(/C=C/C(=O)N3CCS(=O)(=O)CC3)c12            IC50       580

###

targetEntity: human SPR (Homo sapiens (Human), UniProt P35270)
Sequence (P35270 whole entry): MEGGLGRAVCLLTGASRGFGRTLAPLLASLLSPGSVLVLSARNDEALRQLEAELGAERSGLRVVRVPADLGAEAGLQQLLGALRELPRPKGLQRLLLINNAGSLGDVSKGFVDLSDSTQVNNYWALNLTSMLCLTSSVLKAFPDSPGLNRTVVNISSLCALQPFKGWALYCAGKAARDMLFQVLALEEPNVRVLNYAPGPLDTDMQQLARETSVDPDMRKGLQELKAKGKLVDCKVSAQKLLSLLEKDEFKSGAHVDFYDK
runDescription: Evaluation Example 2: Measurement of human SPR inhibitory activity (seven concentrations, sepiapterin absorbance at 420 nm)
Assay type: biochemical
runParameters: Evaluation Example 2, seven concentrations 0.14 nM to 100 nM, 240 minutes at room temperature, read-out: IC50
Structures can show the parent of a compound that is named as a salt.
measuredMetric: log10 IC50 (log10 of the value in nM)

> print(dat)
                                    compound  obsvalue
 1  CC(C)Cn1c(=O)c(C(=O)NC2CC2)c(O)n2ncc(/C=C/C(=O)N3CCC(O)CC3)c12 [compound 476]     -0.12
 2  Cc1nn2c(O)c(C(=O)NC3CC3)c(=O)n(CC(C)C)c2c1/C=C/C(=O)N1C[C@H]2COC[C@H]2C1 [Synthesis Example 628]     -0.08
 3  CCCc1cnc(Nc2cc3n(CC(C)(C)C)c(=O)c(C(=O)NC4CC4)c(O)n3n2)cn1 [Synthesis Example 336]      0.85
 4  CC(C)Cn1c(=O)c(C(=O)NC2CC2)c(O)n2ncc(/C=C/C(=O)N3CCOCC3CC(F)(F)F)c12 (single isomer, unassigned) [compound 550]     -0.10
 5  CC(C)(C)Cn1c(=O)c(C(=O)NC2CC2)c(O)n2nc(-c3n[nH]c4ccncc34)cc12 [Synthesis Example 307, hydrochloride]      0.48
 6  CC(C)Cn1c(=O)c(C(=O)NC2CC2)c(O)n2ncc(/C=C/C(=O)N3CCC(C#N)CC3)c12 [compound 468]     -0.08
 7  CC(C)Cn1c(=O)c(C(=O)NC2CC2)c(O)n2ncc(/C=C/C(=O)N3CCOC[C@H]3CO)c12 [compound 526]     -0.17
 8  Cc1nccc(Nc2cc3n(CC(C)(C)C)c(=O)c(C(=O)NC4CC4)c(O)n3n2)n1 [Synthesis Example 334]      0.00
 9  COC[C@H]1CCCN1C(=O)/C=C/c1cnn2c(O)c(C(=O)NC3CC3)c(=O)n(CC(C)C)c12 [compound 548]     -0.10
10  CC(C)(C)Cn1c(=O)c(C(=O)NC2CC2)c(O)n2nc(N3CC[C@H](N)C3)cc12 [Synthesis Example 342]      0.36
11  Cc1cc2n(CC(C)(C)C)c(=O)c(C(=O)NC3CC3)c(O)n2n1 [Synthesis Example 320]      0.23
12  CC(C)Cn1c(=O)c(C(=O)NC2CC2)c(O)n2ncc(/C=C/C(C)(C)O)c12 [Synthesis Example 265]     -0.17
13  NC(=O)c1cc2n(CC3CCC(F)(F)CC3)c(=O)c(C(=O)NC3CC3)c(O)n2n1 [Synthesis Example 276]     -0.17
14  CC(C)(C)Cn1c(=O)c(C(=O)NC2CC2)c(O)n2nc(Nc3cnc(F)cn3)cc12 [Synthesis Example 322]     -0.01
